- Tested on: IL-10(tm/tm) mouse aorta
- protocol.text: Force-tension myography, ACH dependent vasorelaxation of phenylephrine pre-constricted IL-10(tm/tm) aortic rings
- Assay type: cell-based
- reported.conditions: Mus musculus; old IL-10(tm/tm) mice aortas; n=6; read-out: EC50 of ACH mediated vasorelaxation
readout.name: pEC50
FYI, pEC50 means -log10 of a concentration in mol per litre.

Can you share its pEC50? I mean this molecule: CC(=O)OCC[N+](C)(C)C [ACH, Acetylcholine]
7.40

// data source = patent US20130121961A1
